Consider the following IC50 values measured on rat intestinal α-glucosidase (sucrase) (Rattus norvegicus).
Sequence (P23739 1014-1841 limits assumed): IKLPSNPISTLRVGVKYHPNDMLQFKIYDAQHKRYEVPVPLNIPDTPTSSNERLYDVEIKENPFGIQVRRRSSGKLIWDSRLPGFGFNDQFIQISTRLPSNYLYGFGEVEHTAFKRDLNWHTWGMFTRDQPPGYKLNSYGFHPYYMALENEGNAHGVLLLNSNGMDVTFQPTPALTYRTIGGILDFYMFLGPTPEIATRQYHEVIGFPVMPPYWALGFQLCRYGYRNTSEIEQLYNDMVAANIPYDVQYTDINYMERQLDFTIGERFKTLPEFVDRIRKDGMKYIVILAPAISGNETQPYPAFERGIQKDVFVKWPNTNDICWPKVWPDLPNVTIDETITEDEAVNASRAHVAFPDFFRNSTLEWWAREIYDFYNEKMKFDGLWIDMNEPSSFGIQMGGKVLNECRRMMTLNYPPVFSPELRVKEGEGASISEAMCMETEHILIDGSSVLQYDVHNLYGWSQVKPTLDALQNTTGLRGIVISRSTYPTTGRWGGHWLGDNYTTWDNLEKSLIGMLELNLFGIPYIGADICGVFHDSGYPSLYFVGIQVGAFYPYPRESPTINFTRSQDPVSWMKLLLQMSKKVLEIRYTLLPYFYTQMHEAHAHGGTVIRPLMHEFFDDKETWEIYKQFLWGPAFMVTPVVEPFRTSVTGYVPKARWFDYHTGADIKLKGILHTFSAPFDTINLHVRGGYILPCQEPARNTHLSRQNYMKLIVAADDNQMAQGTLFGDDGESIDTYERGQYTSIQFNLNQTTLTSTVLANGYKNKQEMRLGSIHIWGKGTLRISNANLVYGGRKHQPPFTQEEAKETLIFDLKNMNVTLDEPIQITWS
Sequence (P23739 1-1013 partner limits assumed): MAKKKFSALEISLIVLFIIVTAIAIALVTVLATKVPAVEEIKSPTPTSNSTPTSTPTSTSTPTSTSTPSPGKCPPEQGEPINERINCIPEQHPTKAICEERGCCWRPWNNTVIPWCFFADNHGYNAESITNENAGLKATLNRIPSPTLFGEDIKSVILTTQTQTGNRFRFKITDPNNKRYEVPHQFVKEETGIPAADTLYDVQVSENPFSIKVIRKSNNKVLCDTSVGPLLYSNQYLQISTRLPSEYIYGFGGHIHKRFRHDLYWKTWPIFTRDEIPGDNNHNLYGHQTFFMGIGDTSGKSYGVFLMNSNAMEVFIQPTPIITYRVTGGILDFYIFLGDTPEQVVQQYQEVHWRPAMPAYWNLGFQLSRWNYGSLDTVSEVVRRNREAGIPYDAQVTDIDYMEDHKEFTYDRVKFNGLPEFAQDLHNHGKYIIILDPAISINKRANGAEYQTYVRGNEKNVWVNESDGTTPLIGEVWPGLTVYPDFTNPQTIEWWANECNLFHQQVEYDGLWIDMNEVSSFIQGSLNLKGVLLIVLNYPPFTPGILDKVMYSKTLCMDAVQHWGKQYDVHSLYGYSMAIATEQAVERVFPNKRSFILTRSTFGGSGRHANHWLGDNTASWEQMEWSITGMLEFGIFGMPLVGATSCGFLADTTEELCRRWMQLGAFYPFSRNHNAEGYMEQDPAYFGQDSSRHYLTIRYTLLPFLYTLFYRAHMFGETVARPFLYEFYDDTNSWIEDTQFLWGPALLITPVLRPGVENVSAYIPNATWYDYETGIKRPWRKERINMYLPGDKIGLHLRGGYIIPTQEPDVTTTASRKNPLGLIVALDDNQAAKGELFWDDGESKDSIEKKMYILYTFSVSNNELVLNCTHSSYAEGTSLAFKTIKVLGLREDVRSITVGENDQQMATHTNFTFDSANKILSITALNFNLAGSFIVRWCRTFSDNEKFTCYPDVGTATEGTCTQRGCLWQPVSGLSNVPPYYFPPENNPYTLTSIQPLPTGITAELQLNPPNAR

Incoming: Retrieve IC50 on rat intestinal α-glucosidase (sucrase) (Rattus norvegicus); query C=C(C)[C@@H]1CC[C@]2(C(=O)O)CC[C@]3(C)[C@H](CC[C@@H]4[C@@]5(C)CC[C@H](O)C(C)(C)[C@@H]5CC[C@]43C)[C@@H]12
Outgoing: > 3 mM

Incoming: Retrieve IC50 on rat intestinal α-glucosidase (sucrase) (Rattus norvegicus); query C=C(C)[C@@H]1CC[C@]2(C(=O)O)CC[C@]3(C)[C@H](CC[C@@H]4[C@@]5(C)CC[C@H](OC(=O)CC)C(C)(C)[C@@H]5CC[C@]43C)[C@@H]12
Outgoing: > 3 mM

Incoming: Retrieve IC50 on rat intestinal α-glucosidase (sucrase) (Rattus norvegicus); query C[C@@H]1O[C@@H](O[C@H]2[C@H](Oc3c(-c4ccc(O)c(O)c4)oc4cc(O)cc(O)c4c3=O)O[C@@H](C)[C@H](O)[C@H]2O)[C@H](O)[C@H](O)[C@H]1O
Outgoing: > 3 mM
